Measured inhibition by item
target: BMX (human) (UniProt P51813)
Sequence (P51813 whole entry, looked up): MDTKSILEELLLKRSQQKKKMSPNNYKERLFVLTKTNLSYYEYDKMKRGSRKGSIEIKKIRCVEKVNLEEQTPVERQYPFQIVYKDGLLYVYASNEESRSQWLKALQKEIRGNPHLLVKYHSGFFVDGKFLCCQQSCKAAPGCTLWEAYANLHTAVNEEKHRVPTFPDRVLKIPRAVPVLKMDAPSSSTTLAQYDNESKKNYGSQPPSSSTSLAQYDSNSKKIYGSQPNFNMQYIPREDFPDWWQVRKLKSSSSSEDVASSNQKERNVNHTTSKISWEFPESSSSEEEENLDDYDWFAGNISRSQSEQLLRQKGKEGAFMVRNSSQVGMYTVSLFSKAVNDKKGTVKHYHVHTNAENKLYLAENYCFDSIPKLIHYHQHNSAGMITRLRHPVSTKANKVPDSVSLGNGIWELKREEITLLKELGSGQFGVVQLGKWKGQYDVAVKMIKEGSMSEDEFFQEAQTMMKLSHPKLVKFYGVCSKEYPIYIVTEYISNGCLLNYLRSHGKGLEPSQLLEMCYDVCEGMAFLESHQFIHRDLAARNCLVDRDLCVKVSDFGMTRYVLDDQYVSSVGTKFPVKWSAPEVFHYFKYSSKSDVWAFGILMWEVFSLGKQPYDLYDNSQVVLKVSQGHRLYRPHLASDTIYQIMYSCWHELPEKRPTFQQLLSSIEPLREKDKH
experimental.protocol: Caliper, Mobility shift assay off-chip
condition.summary: compound 0.1 µM

molecule	inhibition / %
O=C(CCc1ccc2ccc3ncc(C4CCNCC4)cc3c(=O)c2c1)NCc1ccccn1	-10.4
Cn1cc(-c2cnc3ccc4ccc(CS(=O)(=O)NCC5CCCCN5)cc4c(=O)c3c2)cn1 (configuration not stated)	-17.3
Cn1cc(-c2cnc3ccc4ccc(CS(=O)(=O)CCc5ccccn5)cc4c(=O)c3c2)cn1	-7.2
O=c1c2cc(CS(=O)(=O)NCc3ccccn3)ccc2ccc2ncc(C3CCNCC3)cc12	-3.8
CN(c1ccc2ccc3ncc(-c4cnn(C)c4)cc3c(=O)c2c1)S(=O)(=O)NCc1ccccn1	1.8
Cn1cc(-c2cnc3ccc4ccc(CS(N)(=O)=O)cc4c(=O)c3c2)cn1	1.6
Cn1cc(-c2cnc3ccc4ccc(CS(=O)(=O)NC5CCCCC5)cc4c(=O)c3c2)cn1	-7.1

###

target: FLT3 (human) (UniProt P36888)
Sequence (P36888 whole entry, looked up): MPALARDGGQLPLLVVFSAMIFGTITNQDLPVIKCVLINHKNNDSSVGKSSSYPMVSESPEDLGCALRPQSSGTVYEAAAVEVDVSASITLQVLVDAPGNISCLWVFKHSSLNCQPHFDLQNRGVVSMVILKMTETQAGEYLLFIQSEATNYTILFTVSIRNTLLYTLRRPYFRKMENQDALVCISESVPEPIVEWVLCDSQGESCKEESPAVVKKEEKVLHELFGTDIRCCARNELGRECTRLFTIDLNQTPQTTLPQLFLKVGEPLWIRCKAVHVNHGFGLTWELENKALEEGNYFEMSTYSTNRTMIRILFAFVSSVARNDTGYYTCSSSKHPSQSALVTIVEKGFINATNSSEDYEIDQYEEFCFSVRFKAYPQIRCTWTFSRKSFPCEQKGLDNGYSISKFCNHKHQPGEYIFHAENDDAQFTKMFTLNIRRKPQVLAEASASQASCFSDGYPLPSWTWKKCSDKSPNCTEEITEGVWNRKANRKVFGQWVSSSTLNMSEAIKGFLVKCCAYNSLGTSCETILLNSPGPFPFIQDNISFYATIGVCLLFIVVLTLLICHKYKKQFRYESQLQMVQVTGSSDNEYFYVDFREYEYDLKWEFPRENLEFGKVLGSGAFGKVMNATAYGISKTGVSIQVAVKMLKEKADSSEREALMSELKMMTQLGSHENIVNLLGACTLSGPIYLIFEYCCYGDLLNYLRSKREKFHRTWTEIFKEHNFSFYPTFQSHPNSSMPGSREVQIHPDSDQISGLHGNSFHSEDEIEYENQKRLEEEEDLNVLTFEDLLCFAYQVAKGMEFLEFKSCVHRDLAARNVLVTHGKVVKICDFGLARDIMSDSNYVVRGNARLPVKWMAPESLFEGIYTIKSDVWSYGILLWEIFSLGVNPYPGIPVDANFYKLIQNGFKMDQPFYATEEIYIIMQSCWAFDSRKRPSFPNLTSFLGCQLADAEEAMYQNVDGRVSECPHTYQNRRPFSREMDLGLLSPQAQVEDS
experimental.protocol: Caliper, Mobility shift assay off-chip
condition.summary: compound 0.1 µM
Measured inhibition by item

molecule	target	units	inhibition
CN(c1ccc2ccc3ncc(-c4cnn(C)c4)cc3c(=O)c2c1)S(=O)(=O)NCc1ccccn1	FLT3 (human) (UniProt P36888)	%	13.7
Cn1cc(-c2cnc3ccc4ccc(CS(N)(=O)=O)cc4c(=O)c3c2)cn1	FLT3 (human) (UniProt P36888)	%	4.2
O=C(CCc1ccc2ccc3ncc(C4CCNCC4)cc3c(=O)c2c1)NCc1ccccn1	FLT3 (human) (UniProt P36888)	%	-5.8
O=c1c2cc(CS(=O)(=O)NCc3ccccn3)ccc2ccc2ncc(C3CCNCC3)cc12	FLT3 (human) (UniProt P36888)	%	5
Cn1cc(-c2cnc3ccc4ccc(CS(=O)(=O)CCc5ccccn5)cc4c(=O)c3c2)cn1	FLT3 (human) (UniProt P36888)	%	1.3
Cn1cc(-c2cnc3ccc4ccc(CS(=O)(=O)NC5CCCCC5)cc4c(=O)c3c2)cn1	FLT3 (human) (UniProt P36888)	%	-2.3
Cn1cc(-c2cnc3ccc4ccc(CS(=O)(=O)NCC5CCCCN5)cc4c(=O)c3c2)cn1 (configuration not stated)	FLT3 (human) (UniProt P36888)	%	11

###

Measured inhibition by item
target: UniProt:P48730
Sequence (P48730 whole entry, looked up): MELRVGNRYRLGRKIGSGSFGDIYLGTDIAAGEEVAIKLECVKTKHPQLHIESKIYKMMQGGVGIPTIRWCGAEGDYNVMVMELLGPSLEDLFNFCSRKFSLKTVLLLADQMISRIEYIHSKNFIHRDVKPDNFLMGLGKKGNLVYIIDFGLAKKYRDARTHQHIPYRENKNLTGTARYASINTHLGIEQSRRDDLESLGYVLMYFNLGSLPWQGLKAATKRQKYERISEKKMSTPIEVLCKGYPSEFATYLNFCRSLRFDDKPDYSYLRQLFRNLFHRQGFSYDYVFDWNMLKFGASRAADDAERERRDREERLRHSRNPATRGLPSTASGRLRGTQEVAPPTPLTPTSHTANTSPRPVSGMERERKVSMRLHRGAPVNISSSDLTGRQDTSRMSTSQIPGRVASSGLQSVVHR
experimental.protocol: Caliper, Mobility shift assay off-chip
condition.summary: compound 1.0 µM
metric: inhibition (%)

molecule	metric	reported.measurement
CN(c1ccc2ccc3ncc(-c4cnn(C)c4)cc3c(=O)c2c1)S(=O)(=O)NCc1ccccn1	inhibition	8.9
O=C(CCc1ccc2ccc3ncc(C4CCNCC4)cc3c(=O)c2c1)NCc1ccccn1	inhibition	-2.9
Cn1cc(-c2cnc3ccc4ccc(CS(N)(=O)=O)cc4c(=O)c3c2)cn1	inhibition	11.1
Cn1cc(-c2cnc3ccc4ccc(CS(=O)(=O)NCC5CCCCN5)cc4c(=O)c3c2)cn1 (stereo not given)	inhibition	7.4
Cn1cc(-c2cnc3ccc4ccc(CS(=O)(=O)CCc5ccccn5)cc4c(=O)c3c2)cn1	inhibition	8.9

###

target: RPS6KB1 (human)
experimental.protocol: Caliper, Mobility shift assay off-chip
condition.summary: compound 1.0 µM

compound	inhibition (%)
CN(c1ccc2ccc3ncc(-c4cnn(C)c4)cc3c(=O)c2c1)S(=O)(=O)NCc1ccccn1	-6.2
Cn1cc(-c2cnc3ccc4ccc(CS(N)(=O)=O)cc4c(=O)c3c2)cn1	13.5
O=C(CCc1ccc2ccc3ncc(C4CCNCC4)cc3c(=O)c2c1)NCc1ccccn1	-3.3
Cn1cc(-c2cnc3ccc4ccc(CS(=O)(=O)NCC5CCCCN5)cc4c(=O)c3c2)cn1 (stereo not given)	0
Cn1cc(-c2cnc3ccc4ccc(CS(=O)(=O)CCc5ccccn5)cc4c(=O)c3c2)cn1	-2.1

###

target: UniProtKB P11309
Sequence (P11309 whole entry, looked up): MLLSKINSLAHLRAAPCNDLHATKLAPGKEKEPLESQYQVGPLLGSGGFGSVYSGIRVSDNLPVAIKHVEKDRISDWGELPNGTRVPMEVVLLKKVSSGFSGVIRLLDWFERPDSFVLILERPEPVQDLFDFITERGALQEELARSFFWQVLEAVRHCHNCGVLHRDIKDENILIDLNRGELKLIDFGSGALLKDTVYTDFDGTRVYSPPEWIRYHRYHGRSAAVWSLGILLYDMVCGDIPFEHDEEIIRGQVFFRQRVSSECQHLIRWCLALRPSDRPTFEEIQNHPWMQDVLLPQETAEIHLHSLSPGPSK
experimental.protocol: Caliper, Mobility shift assay off-chip
condition.summary: compound 0.1 µM

compound	units	inhibition
Cn1cc(-c2cnc3ccc4ccc(CS(=O)(=O)NC5CCCCC5)cc4c(=O)c3c2)cn1	%	-4.6
Cn1cc(-c2cnc3ccc4ccc(CS(=O)(=O)CCc5ccccn5)cc4c(=O)c3c2)cn1	%	-3.6
O=C(CCc1ccc2ccc3ncc(C4CCNCC4)cc3c(=O)c2c1)NCc1ccccn1	%	-2.4
O=c1c2cc(CS(=O)(=O)NCc3ccccn3)ccc2ccc2ncc(C3CCNCC3)cc12	%	-6.2
Cn1cc(-c2cnc3ccc4ccc(CS(=O)(=O)NCC5CCCCN5)cc4c(=O)c3c2)cn1 (configuration not stated)	%	-4.7
CN(c1ccc2ccc3ncc(-c4cnn(C)c4)cc3c(=O)c2c1)S(=O)(=O)NCc1ccccn1	%	-2.7
Cn1cc(-c2cnc3ccc4ccc(CS(N)(=O)=O)cc4c(=O)c3c2)cn1	%	-4.1

###

target: RPS6KA1 KD1 KD2 (human) (UniProt Q15418)
Sequence (Q15418 whole entry, looked up): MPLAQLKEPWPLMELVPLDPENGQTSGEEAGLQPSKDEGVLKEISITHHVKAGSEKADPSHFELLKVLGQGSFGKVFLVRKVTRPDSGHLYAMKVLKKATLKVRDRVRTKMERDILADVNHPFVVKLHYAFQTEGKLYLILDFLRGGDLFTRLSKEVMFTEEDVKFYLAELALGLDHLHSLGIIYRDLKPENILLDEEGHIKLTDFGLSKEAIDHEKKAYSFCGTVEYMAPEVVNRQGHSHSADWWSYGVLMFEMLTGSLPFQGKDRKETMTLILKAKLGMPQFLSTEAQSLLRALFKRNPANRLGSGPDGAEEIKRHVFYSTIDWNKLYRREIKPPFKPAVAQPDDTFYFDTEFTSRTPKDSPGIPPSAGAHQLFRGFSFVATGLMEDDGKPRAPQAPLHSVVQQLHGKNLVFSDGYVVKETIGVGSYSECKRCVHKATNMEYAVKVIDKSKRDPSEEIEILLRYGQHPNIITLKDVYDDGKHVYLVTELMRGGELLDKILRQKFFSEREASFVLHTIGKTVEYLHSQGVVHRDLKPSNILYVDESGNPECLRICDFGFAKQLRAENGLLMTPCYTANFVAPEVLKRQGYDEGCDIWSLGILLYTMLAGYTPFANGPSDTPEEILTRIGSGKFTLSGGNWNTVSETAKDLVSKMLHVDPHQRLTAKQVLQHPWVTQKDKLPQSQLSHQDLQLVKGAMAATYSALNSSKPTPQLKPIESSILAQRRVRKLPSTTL
experimental.protocol: Caliper, Mobility shift assay off-chip
condition.summary: compound 0.1 µM

compound	inhibition / %
O=C(CCc1ccc2ccc3ncc(C4CCNCC4)cc3c(=O)c2c1)NCc1ccccn1	-2.2
CN(c1ccc2ccc3ncc(-c4cnn(C)c4)cc3c(=O)c2c1)S(=O)(=O)NCc1ccccn1	-2.7
Cn1cc(-c2cnc3ccc4ccc(CS(=O)(=O)NC5CCCCC5)cc4c(=O)c3c2)cn1	3.4
Cn1cc(-c2cnc3ccc4ccc(CS(N)(=O)=O)cc4c(=O)c3c2)cn1	-12.4
Cn1cc(-c2cnc3ccc4ccc(CS(=O)(=O)CCc5ccccn5)cc4c(=O)c3c2)cn1	-15.2
Cn1cc(-c2cnc3ccc4ccc(CS(=O)(=O)NCC5CCCCN5)cc4c(=O)c3c2)cn1 (configuration not stated)	8.6
O=c1c2cc(CS(=O)(=O)NCc3ccccn3)ccc2ccc2ncc(C3CCNCC3)cc12	13.5

###

Measured inhibition by item
target: SGK2 (human) (UniProt Q9HBY8)
Sequence (Q9HBY8 whole entry, looked up): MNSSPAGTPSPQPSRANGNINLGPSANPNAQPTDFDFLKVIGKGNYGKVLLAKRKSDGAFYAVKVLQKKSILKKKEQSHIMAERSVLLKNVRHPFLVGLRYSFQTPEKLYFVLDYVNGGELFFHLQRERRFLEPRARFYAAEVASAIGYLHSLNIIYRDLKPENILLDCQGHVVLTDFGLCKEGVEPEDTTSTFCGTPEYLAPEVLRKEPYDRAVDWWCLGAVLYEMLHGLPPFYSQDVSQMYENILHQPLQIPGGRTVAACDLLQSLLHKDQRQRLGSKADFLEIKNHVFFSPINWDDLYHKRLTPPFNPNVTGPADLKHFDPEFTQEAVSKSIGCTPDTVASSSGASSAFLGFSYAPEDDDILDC
experimental.protocol: Caliper, Mobility shift assay off-chip
condition.summary: compound 1.0 µM

molecule	inhibition, %
Cn1cc(-c2cnc3ccc4ccc(CS(=O)(=O)NCC5CCCCN5)cc4c(=O)c3c2)cn1 (stereo not given)	-11.8
Cn1cc(-c2cnc3ccc4ccc(CS(N)(=O)=O)cc4c(=O)c3c2)cn1	23.1
Cn1cc(-c2cnc3ccc4ccc(CS(=O)(=O)CCc5ccccn5)cc4c(=O)c3c2)cn1	-3.6
CN(c1ccc2ccc3ncc(-c4cnn(C)c4)cc3c(=O)c2c1)S(=O)(=O)NCc1ccccn1	3.7
O=C(CCc1ccc2ccc3ncc(C4CCNCC4)cc3c(=O)c2c1)NCc1ccccn1	-7.4

###

Measured inhibition by item
target: CAMK2G (human)
experimental.protocol: Caliper, Mobility shift assay off-chip
condition.summary: compound 1.0 µM
metric: inhibition

structure	reported.measurement
Cn1cc(-c2cnc3ccc4ccc(CS(N)(=O)=O)cc4c(=O)c3c2)cn1	-1.6%
O=C(CCc1ccc2ccc3ncc(C4CCNCC4)cc3c(=O)c2c1)NCc1ccccn1	-2.8%
CN(c1ccc2ccc3ncc(-c4cnn(C)c4)cc3c(=O)c2c1)S(=O)(=O)NCc1ccccn1	0.4%
Cn1cc(-c2cnc3ccc4ccc(CS(=O)(=O)CCc5ccccn5)cc4c(=O)c3c2)cn1	-1.5%

###

target: CHEK1 (human) (UniProt O14757)
Sequence (O14757 whole entry, looked up): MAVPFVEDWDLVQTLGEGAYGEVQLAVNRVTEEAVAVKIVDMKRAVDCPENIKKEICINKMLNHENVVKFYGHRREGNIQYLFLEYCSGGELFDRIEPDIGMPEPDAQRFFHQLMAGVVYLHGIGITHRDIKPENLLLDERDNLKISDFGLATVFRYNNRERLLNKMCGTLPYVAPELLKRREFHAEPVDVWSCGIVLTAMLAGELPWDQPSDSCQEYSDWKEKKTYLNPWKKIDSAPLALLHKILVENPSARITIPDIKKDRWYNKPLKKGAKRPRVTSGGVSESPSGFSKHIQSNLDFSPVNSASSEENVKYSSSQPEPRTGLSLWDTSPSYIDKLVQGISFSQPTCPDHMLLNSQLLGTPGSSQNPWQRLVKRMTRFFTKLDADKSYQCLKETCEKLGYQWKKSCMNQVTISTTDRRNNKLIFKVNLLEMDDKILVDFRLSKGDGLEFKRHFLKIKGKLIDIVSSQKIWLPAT
experimental.protocol: Caliper, Mobility shift assay off-chip
condition.summary: compound 0.1 µM
Measured inhibition by item

compound	inhibition
Cn1cc(-c2cnc3ccc4ccc(CS(=O)(=O)NCC5CCCCN5)cc4c(=O)c3c2)cn1 (configuration not stated)	1.1%
Cn1cc(-c2cnc3ccc4ccc(CS(=O)(=O)NC5CCCCC5)cc4c(=O)c3c2)cn1	1.3%
O=c1c2cc(CS(=O)(=O)NCc3ccccn3)ccc2ccc2ncc(C3CCNCC3)cc12	-6%
Cn1cc(-c2cnc3ccc4ccc(CS(N)(=O)=O)cc4c(=O)c3c2)cn1	-7.9%
CN(c1ccc2ccc3ncc(-c4cnn(C)c4)cc3c(=O)c2c1)S(=O)(=O)NCc1ccccn1	3.6%
Cn1cc(-c2cnc3ccc4ccc(CS(=O)(=O)CCc5ccccn5)cc4c(=O)c3c2)cn1	2%
O=C(CCc1ccc2ccc3ncc(C4CCNCC4)cc3c(=O)c2c1)NCc1ccccn1	-0.6%

###

target: TSSK2 (human) (UniProt Q96PF2)
Sequence (Q96PF2 whole entry, looked up): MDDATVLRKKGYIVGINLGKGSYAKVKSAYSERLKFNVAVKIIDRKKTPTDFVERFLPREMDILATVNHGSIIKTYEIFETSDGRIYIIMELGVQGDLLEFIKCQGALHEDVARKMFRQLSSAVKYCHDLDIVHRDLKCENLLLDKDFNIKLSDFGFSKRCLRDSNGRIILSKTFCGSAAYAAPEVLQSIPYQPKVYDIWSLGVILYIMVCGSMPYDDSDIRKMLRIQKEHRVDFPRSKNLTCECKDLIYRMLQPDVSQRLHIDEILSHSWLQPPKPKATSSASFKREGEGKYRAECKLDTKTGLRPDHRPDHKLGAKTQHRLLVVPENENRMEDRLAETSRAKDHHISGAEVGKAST
experimental.protocol: Caliper, Mobility shift assay off-chip
condition.summary: compound 1.0 µM
metric: inhibition (%)

structure	metric	reported.measurement
Cn1cc(-c2cnc3ccc4ccc(CS(N)(=O)=O)cc4c(=O)c3c2)cn1	inhibition	10.5
O=C(CCc1ccc2ccc3ncc(C4CCNCC4)cc3c(=O)c2c1)NCc1ccccn1	inhibition	1.3
Cn1cc(-c2cnc3ccc4ccc(CS(=O)(=O)CCc5ccccn5)cc4c(=O)c3c2)cn1	inhibition	-7.1
CN(c1ccc2ccc3ncc(-c4cnn(C)c4)cc3c(=O)c2c1)S(=O)(=O)NCc1ccccn1	inhibition	-0.8

###

target: PRKCD (human)
experimental.protocol: Caliper, Mobility shift assay off-chip
condition.summary: compound 1.0 µM

molecule	target	inhibition
CN(c1ccc2ccc3ncc(-c4cnn(C)c4)cc3c(=O)c2c1)S(=O)(=O)NCc1ccccn1	PRKCD (human)	2.2%
O=C(CCc1ccc2ccc3ncc(C4CCNCC4)cc3c(=O)c2c1)NCc1ccccn1	PRKCD (human)	-5.4%
Cn1cc(-c2cnc3ccc4ccc(CS(=O)(=O)NCC5CCCCN5)cc4c(=O)c3c2)cn1 (centres undefined)	PRKCD (human)	-8.2%
Cn1cc(-c2cnc3ccc4ccc(CS(=O)(=O)CCc5ccccn5)cc4c(=O)c3c2)cn1	PRKCD (human)	2.1%
